Reference for the values: PubChem BioAssay (NCATS)

System: PA-1
Test: Primary qHTS to identify gynecologic anti-cancer compounds using libraries of approved drugs and bioactive compounds (AID 1345084); further: nearly all actives have a fitted effect of over 55% in size
Details: Gynecologic cancer cell panel viability, ATPlite luminescence, 48 h; series mostly up to 57.5 µM
From the text: National Center for Advancing Translational Sciences [NCATS] Assay Overview: Chemotherapeutic drug responses vary from cancer to cancer and from patient to patient. […] ATPlite is a luminescence based assay reliant on the conversion of a luciferase substrate to light in the presence of ATP. As a cytotoxic compound will suppress growth and decrease the number of cells, the concentration of ATP will decrease, and less light signal will be detected in the well. […]
Results filed as inconclusive are left out. The source made the active and inactive calls. The call rests on the fitted dose curve; in most records, active means well fitted cell-killing curve with a large enough effect; inconclusive means small, poorly fitted or top-dose-only effect, or effect the other way; inactive means flat fitted curve, though single readings scatter.
QUANTITY KIND: outcome

COc1cc(C)c(C(=O)O[C@H]2[C@@H](OC(C)=O)[C@H](n3ccc(=O)[nH]c3=O)O[C@@H]2CO)c(OC)c1 ... inactive
COc1c(/C=C/C(C)(C)O)ccc2c1C(=O)OCc1cc(C)cc(O)c1O2 ... inactive
COC(=O)CC1CC(c2ccc(O)cc2)=NO1 (stereo not drawn) ... inactive
CC(=O)c1ccc2c(c1)C(O)C(C(C)(C)O)O2 (stereo not drawn) ... inactive
CCC(=O)O[C@H]1C(C)(C)[C@H]([C@@H](O)C(=O)OC)[C@]2(C)C(=O)[C@@]1(O)[C@H]1O[C@]13C1CC(=O)O[C@@H](c4ccoc4)[C@]1(C)CCC32 (stereo partly drawn) ... inactive
C[C@@H]1CCC/C=C/[C@H]2CC(=O)C[C@@H]2[C@@H](O)/C=C/C(=O)O1 ... inactive
COc1ncc(Nc2ncc([C@@H](C)N3CCN(S(C)(=O)=O)CC3)cc2-c2nc(C)nc(N)n2)cc1F ... inactive
COc1c2c(c(C)c3c1C(=O)OC3)O[C@@]1(C)CCC3(C(C)(C)O)OC(=O)CC[C@]3(C)[C@H]1C2 (stereo partly drawn) ... inactive
